Every entry's value here was drawn from paper PMC10243363.

Exercise: state measured log10 EC50 for each of the molecules provided.
# test.system: KOR (Mus musculus, UniProt P33534)
# Sequence (P33534 whole entry): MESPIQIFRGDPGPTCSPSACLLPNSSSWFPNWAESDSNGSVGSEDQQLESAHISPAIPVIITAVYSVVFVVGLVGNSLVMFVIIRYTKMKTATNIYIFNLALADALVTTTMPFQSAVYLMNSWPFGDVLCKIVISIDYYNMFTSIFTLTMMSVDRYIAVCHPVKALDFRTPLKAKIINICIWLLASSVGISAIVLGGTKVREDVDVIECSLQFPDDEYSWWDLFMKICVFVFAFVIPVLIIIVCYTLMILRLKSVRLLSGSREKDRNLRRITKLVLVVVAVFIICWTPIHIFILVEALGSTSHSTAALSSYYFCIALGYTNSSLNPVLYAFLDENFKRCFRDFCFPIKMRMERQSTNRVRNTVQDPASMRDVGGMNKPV
# assay.procedure: [35S]-GTPγS binding assay, mKOR-CHO membrane
# condition.label: read-out: KOR EC50; mean ± SEM
Parameter value (number): base-10 log of EC50 in nM.

Given Cl.O=C(/C=C/c1ccoc1)N[C@@H]1CC[C@@]2(O)[C@H]3Cc4cccc5c4[C@@]2(CCN3CC2CC2)[C@H]1O5 , state its recorded log10 EC50. 1.66

Please look up its log10 EC50: Cl.O=C(/C=C/c1ccoc1)N[C@@H]1CC[C@@]2(O)[C@H]3Cc4ccc(O)c5c4[C@@]2(CCN3CC2CC2)[C@H]1O5 -0.44

log10 EC50 for Cl.O=C(/C=C/c1ccoc1)N[C@H]1CC[C@@]2(O)[C@H]3Cc4cccc5c4[C@@]2(CCN3CC2CC2)[C@H]1O5 ? 2.13

Please report the recorded log10 EC50 for CN(C(=O)/C=C/c1ccoc1)[C@H]1CC[C@@]2(O)[C@H]3Cc4cccc5c4[C@@]2(CCN3CC2CC2)[C@H]1O5.Cl . 0.40

Bench note: what log10 EC50 did Cl.O=C(/C=C/c1ccoc1)N[C@H]1CC[C@@]2(O)[C@H]3Cc4ccc(O)c5c4[C@@]2(CCN3CC2CC2)[C@H]1O5 show? 1.18

Which log10 EC50 is listed for CN(C(=O)/C=C/c1ccoc1)[C@@H]1CC[C@@]2(O)[C@H]3Cc4cccc5c4[C@@]2(CCN3CC2CC2)[C@H]1O5.Cl ? 1.77

---

# test.system: MOR (Mus musculus)
# Sequence (P42866 whole entry): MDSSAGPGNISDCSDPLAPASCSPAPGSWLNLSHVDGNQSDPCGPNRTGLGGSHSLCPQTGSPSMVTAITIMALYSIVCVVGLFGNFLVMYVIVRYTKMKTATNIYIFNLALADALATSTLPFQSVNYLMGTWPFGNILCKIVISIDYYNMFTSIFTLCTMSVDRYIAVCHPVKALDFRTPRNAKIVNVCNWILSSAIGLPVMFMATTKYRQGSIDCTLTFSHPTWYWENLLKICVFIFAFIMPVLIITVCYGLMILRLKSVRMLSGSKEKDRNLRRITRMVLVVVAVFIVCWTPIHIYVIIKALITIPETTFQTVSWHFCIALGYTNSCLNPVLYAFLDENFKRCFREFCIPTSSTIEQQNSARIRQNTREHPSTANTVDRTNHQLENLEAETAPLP
# assay.procedure: Competitive radioligand binding assay, MOR
# condition.label: ratio of Ki DOR/MOR
Use true when the recorded Selectivity D/M is no lower than 10; use false when it is lower.

Does the reported Selectivity D/M for Cl.O=C(/C=C/c1ccoc1)N[C@H]1CC[C@@]2(O)[C@H]3Cc4ccc(O)c5c4[C@@]2(CCN3CC2CC2)[C@H]1O5 fall at or above the 10 mark? true

Could you tell me if the measured Selectivity D/M of CN(C(=O)/C=C/c1ccoc1)[C@@H]1CC[C@@]2(O)[C@H]3Cc4cccc5c4[C@@]2(CCN3CC2CC2)[C@H]1O5.Cl reaches 10 or more? false

Decide: Selectivity D/M of CN(C(=O)/C=C/c1ccoc1)[C@H]1CC[C@@]2(O)[C@H]3Cc4cccc5c4[C@@]2(CCN3CC2CC2)[C@H]1O5.Cl >= 10? true

Identify whether the reported Selectivity D/M of the following compound is 10 or greater: Cl.O=C(/C=C/c1ccoc1)N[C@H]1CC[C@@]2(O)[C@H]3Cc4cccc5c4[C@@]2(CCN3CC2CC2)[C@H]1O5 false

Decide: Selectivity D/M of Cl.O=C(/C=C/c1ccoc1)N[C@@H]1CC[C@@]2(O)[C@H]3Cc4cccc5c4[C@@]2(CCN3CC2CC2)[C@H]1O5 >= 10? true

Reported Selectivity D/M reaches at least 10 for Cl.O=C(/C=C/c1ccoc1)N[C@@H]1CC[C@@]2(O)[C@H]3Cc4ccc(O)c5c4[C@@]2(CCN3CC2CC2)[C@H]1O5 ? true
